- Tested on: CAL-51
- protocol: cells
- Format: functional, cell-based
- cond: Homo sapiens, CAL-51, 72 h
reported.property: pIC50
pIC50 is defined as minus the log10 of a concentration measured in mol/L.

stdin: // returns reported pIC50 for input O=C(CCCCCCn1cc(Nc2ncc3ccn(Cc4cccc(F)c4)c3n2)cn1)NO
stdout: 5.89

###

# pIC50 per entry for Tyrosine-protein kinase JAK1 (Homo sapiens, UniProt P23458)
pIC50 is defined as minus the log10 of a concentration measured in mol/L.

{"input.smiles": "O=C(CCCCCn1cc(Nc2ncc3ccn(Cc4cccc(F)c4)c3n2)cn1)NO", "experimental.system": "Tyrosine-protein kinase JAK1 (Homo sapiens, UniProt P23458)", "pIC50": 8.06}

Next up:
stdin: Observed pIC50 on Tyrosine-protein kinase JAK1 (Homo sapiens, UniProt P23458) for O=C(CCCCCn1cc(Nc2ncc3ccn(Cc4ccccc4F)c3n2)cn1)NO , please.
Sequence (P23458 whole entry): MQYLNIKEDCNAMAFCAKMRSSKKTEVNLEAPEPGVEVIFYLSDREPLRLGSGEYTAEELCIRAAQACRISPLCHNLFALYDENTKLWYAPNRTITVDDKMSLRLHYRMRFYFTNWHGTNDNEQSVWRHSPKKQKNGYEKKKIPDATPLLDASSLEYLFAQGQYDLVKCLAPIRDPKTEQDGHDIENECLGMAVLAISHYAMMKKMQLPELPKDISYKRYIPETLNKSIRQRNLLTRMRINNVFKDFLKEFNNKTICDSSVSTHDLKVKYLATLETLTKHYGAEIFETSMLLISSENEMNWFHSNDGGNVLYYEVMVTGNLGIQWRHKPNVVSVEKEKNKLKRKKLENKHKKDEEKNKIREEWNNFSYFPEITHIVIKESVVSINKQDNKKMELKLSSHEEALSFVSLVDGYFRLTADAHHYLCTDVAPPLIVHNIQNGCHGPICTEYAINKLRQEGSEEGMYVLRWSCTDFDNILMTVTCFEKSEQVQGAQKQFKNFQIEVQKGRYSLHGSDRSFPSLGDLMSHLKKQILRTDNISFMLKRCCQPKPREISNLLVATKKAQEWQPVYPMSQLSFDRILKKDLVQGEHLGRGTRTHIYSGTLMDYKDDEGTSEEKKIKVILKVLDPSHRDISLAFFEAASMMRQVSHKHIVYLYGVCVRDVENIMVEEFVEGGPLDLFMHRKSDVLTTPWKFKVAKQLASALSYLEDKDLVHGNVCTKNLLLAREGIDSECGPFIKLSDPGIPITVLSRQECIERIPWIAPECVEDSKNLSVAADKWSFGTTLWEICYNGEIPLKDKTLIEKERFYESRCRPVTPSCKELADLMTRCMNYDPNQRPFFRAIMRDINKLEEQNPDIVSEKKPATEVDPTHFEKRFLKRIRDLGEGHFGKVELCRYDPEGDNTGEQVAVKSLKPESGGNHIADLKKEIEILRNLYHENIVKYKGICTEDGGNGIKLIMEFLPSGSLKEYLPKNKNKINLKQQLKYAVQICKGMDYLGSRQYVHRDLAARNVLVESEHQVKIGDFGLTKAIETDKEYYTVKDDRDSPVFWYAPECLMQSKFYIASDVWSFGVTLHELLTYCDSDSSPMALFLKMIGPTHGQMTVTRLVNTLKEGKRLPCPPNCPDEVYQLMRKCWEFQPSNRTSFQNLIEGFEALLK
stdout: 7.49
